# target-of-assay: D(2) dopamine receptor (Homo sapiens)
# Sequence (P14416 whole entry): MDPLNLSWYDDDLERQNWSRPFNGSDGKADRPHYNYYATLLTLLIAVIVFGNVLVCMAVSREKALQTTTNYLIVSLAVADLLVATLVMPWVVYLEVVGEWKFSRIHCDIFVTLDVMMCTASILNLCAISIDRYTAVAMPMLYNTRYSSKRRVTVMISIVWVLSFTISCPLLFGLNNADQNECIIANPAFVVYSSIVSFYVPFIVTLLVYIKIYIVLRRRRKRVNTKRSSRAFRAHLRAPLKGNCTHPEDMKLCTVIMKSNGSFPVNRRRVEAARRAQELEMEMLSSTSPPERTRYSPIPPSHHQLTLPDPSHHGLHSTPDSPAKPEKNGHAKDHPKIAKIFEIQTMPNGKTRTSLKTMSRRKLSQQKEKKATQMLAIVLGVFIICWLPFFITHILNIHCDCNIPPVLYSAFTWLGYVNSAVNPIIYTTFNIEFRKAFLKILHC
# run-description: Binding affinity to dopamine D2 receptor
pKi: −log10 of the molar value.
endpoint: pKi

Problem: State its pKi on D(2) dopamine receptor (Homo sapiens): [3H]C([3H])([3H])Oc1cc(I)c(OC)cc1CCNCc1ccccc1OC([3H])([3H])[3H]
Result: < 6.30

====

# target-of-assay: UniProt:P28335
# Sequence (P28335 whole entry): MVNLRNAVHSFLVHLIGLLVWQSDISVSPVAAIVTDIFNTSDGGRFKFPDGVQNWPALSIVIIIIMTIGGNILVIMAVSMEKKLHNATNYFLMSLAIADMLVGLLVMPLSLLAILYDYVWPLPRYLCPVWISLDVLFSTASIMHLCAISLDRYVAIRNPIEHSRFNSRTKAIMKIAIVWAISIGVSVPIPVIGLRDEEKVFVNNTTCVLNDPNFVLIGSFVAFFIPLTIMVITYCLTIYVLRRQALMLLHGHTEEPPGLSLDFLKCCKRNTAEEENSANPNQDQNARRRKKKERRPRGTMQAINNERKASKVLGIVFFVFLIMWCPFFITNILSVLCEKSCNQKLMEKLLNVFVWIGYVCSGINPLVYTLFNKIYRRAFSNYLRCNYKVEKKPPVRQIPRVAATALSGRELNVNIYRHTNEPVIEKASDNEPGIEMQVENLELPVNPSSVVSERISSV
endpoint: Ki (nM)
Your answer is read as nM, so omit the unit and give the number.

Problem: May I ask what Ki has been recorded for [3H]C([3H])([3H])Oc1cc(I)c(OC)cc1CCNCc1ccccc1OC([3H])([3H])[3H] ?
Result: 2

====

# target-of-assay: Alpha-1A adrenergic receptor (Homo sapiens)
# Sequence (P35348 whole entry): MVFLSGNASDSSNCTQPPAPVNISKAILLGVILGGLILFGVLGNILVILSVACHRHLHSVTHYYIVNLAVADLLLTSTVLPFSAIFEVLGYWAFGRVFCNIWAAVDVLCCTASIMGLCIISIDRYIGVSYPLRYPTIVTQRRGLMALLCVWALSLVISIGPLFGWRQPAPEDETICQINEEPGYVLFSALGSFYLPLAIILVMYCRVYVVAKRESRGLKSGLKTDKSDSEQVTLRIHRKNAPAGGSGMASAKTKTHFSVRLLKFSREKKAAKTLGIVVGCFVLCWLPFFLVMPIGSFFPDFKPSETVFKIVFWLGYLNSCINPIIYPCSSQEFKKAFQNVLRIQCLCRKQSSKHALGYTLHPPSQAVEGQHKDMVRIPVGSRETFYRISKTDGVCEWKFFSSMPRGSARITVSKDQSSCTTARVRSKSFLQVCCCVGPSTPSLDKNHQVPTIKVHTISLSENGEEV
endpoint: Ki

Problem: May I ask what Ki has been recorded for [3H]C([3H])([3H])Oc1cc(I)c(OC)cc1CCNCc1ccccc1OC([3H])([3H])[3H] ?
Result: > 500 nM

====

# target-of-assay: Sodium-dependent serotonin transporter (Homo sapiens, UniProt P31645)
# Sequence (P31645 whole entry): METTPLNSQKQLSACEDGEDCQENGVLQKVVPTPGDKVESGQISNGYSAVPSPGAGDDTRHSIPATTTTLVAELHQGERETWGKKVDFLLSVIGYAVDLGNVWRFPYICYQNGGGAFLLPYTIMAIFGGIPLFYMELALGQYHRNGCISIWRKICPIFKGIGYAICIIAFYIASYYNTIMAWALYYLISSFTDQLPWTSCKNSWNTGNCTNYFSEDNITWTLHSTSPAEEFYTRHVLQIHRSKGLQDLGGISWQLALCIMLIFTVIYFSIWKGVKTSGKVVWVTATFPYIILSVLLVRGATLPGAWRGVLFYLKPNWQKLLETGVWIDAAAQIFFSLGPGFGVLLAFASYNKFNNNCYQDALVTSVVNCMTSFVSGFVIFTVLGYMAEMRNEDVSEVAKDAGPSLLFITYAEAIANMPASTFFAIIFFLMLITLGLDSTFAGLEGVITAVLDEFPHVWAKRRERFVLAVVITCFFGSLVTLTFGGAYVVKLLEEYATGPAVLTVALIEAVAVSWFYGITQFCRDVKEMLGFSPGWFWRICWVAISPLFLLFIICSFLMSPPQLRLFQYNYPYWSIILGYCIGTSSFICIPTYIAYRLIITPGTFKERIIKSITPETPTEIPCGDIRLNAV
# run-description: Binding affinity to serotonin uptake transporter
endpoint: Ki

Problem: May I ask what Ki has been recorded for [3H]C([3H])([3H])Oc1cc(I)c(OC)cc1CCNCc1ccccc1OC([3H])([3H])[3H] ?
Result: > 500 nM

====

# target-of-assay: UniProt Q01959
# Sequence (Q01959 whole entry): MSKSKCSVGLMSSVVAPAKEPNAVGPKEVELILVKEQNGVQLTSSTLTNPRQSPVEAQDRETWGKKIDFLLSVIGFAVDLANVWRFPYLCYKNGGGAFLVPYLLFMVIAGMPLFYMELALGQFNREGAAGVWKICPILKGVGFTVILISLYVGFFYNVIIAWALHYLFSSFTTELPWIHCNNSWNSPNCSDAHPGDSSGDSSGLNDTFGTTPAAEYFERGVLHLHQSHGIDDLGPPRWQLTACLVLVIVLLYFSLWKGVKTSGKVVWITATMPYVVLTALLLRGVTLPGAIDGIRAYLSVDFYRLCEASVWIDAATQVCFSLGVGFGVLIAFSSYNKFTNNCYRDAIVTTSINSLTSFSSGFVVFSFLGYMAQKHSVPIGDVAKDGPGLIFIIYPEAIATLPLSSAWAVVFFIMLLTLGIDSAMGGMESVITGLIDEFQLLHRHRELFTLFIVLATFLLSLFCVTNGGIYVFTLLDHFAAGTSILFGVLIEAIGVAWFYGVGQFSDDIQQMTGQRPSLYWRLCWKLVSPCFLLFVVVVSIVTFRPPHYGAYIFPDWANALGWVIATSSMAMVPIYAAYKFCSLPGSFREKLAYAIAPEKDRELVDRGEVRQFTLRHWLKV
# run-description: Binding affinity to dopamine uptake transporter
pKi: −log10 of the molar value.
endpoint: pKi

Problem: May I ask what pKi has been recorded for [3H]C([3H])([3H])Oc1cc(I)c(OC)cc1CCNCc1ccccc1OC([3H])([3H])[3H] ?
Result: < 6.30
